System: U251 CNS
Assay Notes: NCI tumour cell line growth inhibition, 48 h
Observable: TGI

For the compound CCOC(=O)C(O)(NC(=O)NC(O)(C(=O)OCC)C(F)(F)F)C(F)(F)F (configuration not stated) , report TGI.
> 100 µM

Indicate its recorded TGI; the compound in question is `C=C1C(=O)O[C@H]2[C@H]1CC/C(Cn1cc(-c3cc(C)c(C)cc3C)nn1)=C\CC[C@@]1(C)O[C@@H]21`
2.91 µM

// Input: `COc1ccc(-c2cc(-c3cc(F)c(Cl)cc3Cl)on2)cc1OC` . Output its TGI only.
> 100 µM

Please give measured TGI of the following entry: CC(NC(=O)C(N)CC(=O)O)NC(=O)N(C)C(C)(C)C (configuration not stated)
> 100 µM

Specify measured TGI for `NNC(=O)/C(NC(=O)c1ccccc1)=C(\N)c1ccc(Cl)cc1` .
> 100 µM

Would you mind listing TGI for each of the following compounds?
1. COC(=O)[C@H](Cc1ccccc1)NP(=O)(O)OCC1C=CC(n2cc(C)c(=O)[nH]c2=O)O1 (some centres not stated)
2. O=C(COc1cccc(/C=C2\CSc3ccccc3C2=O)c1)c1ccc(Cl)cc1
3. C=C1C[C@@]2(C)C(CC[C@]3(C)C2CC=C2C4CC(C)(C)C[C@@H](OC(=O)/C(C)=C\C)[C@]4(C(=O)O)CC[C@]23C)C(C)(C)C1=O (some centres not stated)
4. Cc1c2c(cc3c(=O)ccn(CCN(C)C)c13)c(=O)ccn2CCN(C)C
5. CC1(O)CCC2(C#N)CCC1C2O (configuration not stated)
6. C=C1C(=O)OC2CC(C)C3C=CC(=O)C3CC12 (configuration not stated)
7. COc1cc(Nc2nc3ccc(C(F)(F)F)cc3nc2-c2ccccc2)cc(OC)c1OC
8. c1ccc2nc(CCC3CCCCN3)ccc2c1 (configuration not stated)

1. > 100 µM
2. 2.72 µM
3. 6.83 µM
4. 23 µM
5. > 100 µM
6. 20.6 µM
7. > 100 µM
8. > 100 µM

Take each entry in turn and give its TGI.
1. Cc1ccc(S(=O)(=O)NC(=O)NC(Cc2ccc(O)c(O)c2)C(=O)O)cc1 (configuration not stated)
2. NC1=Nc2cc(OCCCN3Cc4ccccc4C3)c(OCC3CC3)cc2C12CCCC2
3. CC(C)(C)[C@H]1CCC2(OCCO2)[C@](O)(CCCO)C1
4. CCSc1nc(N)c2c(-c3ccccc3)c3c(nc2n1)CCC3
5. NC(CC1=CCC=CC1)C(=O)O (configuration not stated)

["> 100 µM", "3.88 µM", "> 100 µM", "> 100 µM", "> 100 µM"]

###

What GI50 was measured for each of the following?
Test system: A498 renal
Assay Notes: NCI tumour cell line growth inhibition, 48 h

Completed entries (count: 4):
Assign GI50 to the following record: `C1=Nc2ccccc2C=Nc2ccccc2C=Nc2ccccc2C=Nc2ccccc21.[Cl-].[Pt+2]`
23.2 µM

Specify GI50 for `Cc1cc2cn3c4cccnc4[nH]c(=O)c3c2cc1C` and stop.
3.8 µM

Tell me measured GI50 for `CCCN(CCSSCCNc1nc(N(C)O)nc(N(C)O)n1)c1nc(N(C)O)nc(N(C)O)n1` please.
19.5 µM

Give recorded GI50. `N#Cc1ccc2c(c1)C(=O)c1c-2n(CCCN)c(=O)c2cc([N+](=O)[O-])ccc12`
1.09 µM

# ---- query compound ----
State, in one line, measured GI50 of `COc1ccc2c(c1)/C(=N/OC(C)=O)c1c-2c(=O)[nH]c2ccccc12`
7.45 µM
